test system: MALME-3M melanoma; assay: NCI tumour cell line growth inhibition, 48 h
resultType: GI50

compound	system	recordedValue
CC([C@H]1CCC2C3CCC4C[C@@H](NC=O)CC[C@]4(C)C3CC[C@@]21C)N(C)C (stereo partly specified)	MALME-3M melanoma	2.18 µM
CCN1C(=O)N(CC)C2C1NN=c1s/c(=C3\C(=O)N(CC(C)C)c4ccccc43)c(=O)n12 (stereo unspecified)	MALME-3M melanoma	0.885 µM
CCOC(=O)CCCn1c(SC)nc2cc(-c3ccco3)[nH]c2c1=O	MALME-3M melanoma	> 100 µM
CC(=O)[CH-]C(=O)c1ccccc1.CC(=O)[CH-]C(=O)c1ccccc1.CC(=O)[CH-]C(=O)c1ccccc1.[Tl+3]	MALME-3M melanoma	20.2 µM
COC(=O)COc1ccc(/C=C2\N=C(c3ccccc3)N(c3cc(C(F)(F)F)ccc3Cl)C2=O)cc1	MALME-3M melanoma	54.1 µM
N#CC1=C(N)OC2=C(COc3ccc(F)cc32)C1c1ccc(Cl)cc1 (stereo unspecified)	MALME-3M melanoma	47.9 µM

====

tested on: SK-OV-3 ovarian; assay: NCI tumour cell line growth inhibition, 48 h
Let's look at some molecules and their measured TGI.
resultType: TGI (µM)

molecule	resultType	unitDescriptor	cmp	recordedValue
CC(=O)OCSc1ncnc2c1ncn2CN1CCOCC1	TGI	µM	>	100
CCOP(=O)(CC1CC(O)(CNc2cc(Cl)nc(N)n2)C1)OCC (stereo not given)	TGI	µM	>	100
CC(=O)[C@H]1CC[C@H]2[C@@H]3CCC4=CC(=O)CC[C@]4(C)[C@H]3CC[C@]12C	TGI	µM	=	62.9
O=C1OC(C2Cc3ccccc3C2=O)c2ccccc21 (stereo not given)	TGI	µM	>	100
COc1ccc(C2=NN(C(=O)COc3ccc(Cl)cc3)C(O)(c3cc(F)c(Cl)cc3Cl)C2)cc1OC (stereo not given)	TGI	µM	=	30.6
CCN(CC)CCOc1ccc(Nc2ncc3cc(-c4ccc(O)cc4)c(=O)n(C)c3n2)cc1	TGI	µM	=	24.8
Cc1cccc(C)c1NC(=O)/C(Cl)=C(/Cl)C(=O)O	TGI	µM	=	45.5
CN(C)CC(/C(Cc1ccccc1)=N\NC(=O)c1ccncc1)c1ccccc1 (stereo not given)	TGI	µM	>	100
Nc1nc2cc(CNc3ccc(C(=O)O)cc3)ccc2nc1-c1ccccc1	TGI	µM	>	100
Fc1ccc(Oc2nccc(-c3c(-c4ccc(F)cc4)ncn3C3CCNCC3)n2)cc1	TGI	µM	>	25

====

Let's look at some compounds and their measured TGI.
system: IGROV1 ovarian; test: NCI tumour cell line growth inhibition, 48 h

compound	TGI
CSc1nc2c(c(=O)n1C)N=C(c1ccc(Cl)cc1)CC(c1ccccc1)N2 (stereo not given)	55.4 µM
Cc1ccc2ccc(=O)oc2c1	> 100 µM
N#Cc1ccccc1NC(=O)/C(=N\NC(=O)c1ccncc1)C(c1cnc2ccc([N+](=O)[O-])cc2n1)[N+](=O)[O-] (stereo not given)	> 100 µM
CN(C)CCCN=C(N)N	> 100 µM
C=C1CC[C@@]2(C#N)[C@H]3[C@H](CC[C@@H]2C)[C@@H](C)C[C@@H](CC(C)(C)C#N)[C@H]13	59.4 µM
COc1ccc(C[C@H]2NC(=O)/C=C/C[C@@H]([C@H](C)[C@H]3O[C@@H]3c3ccccc3)OC(=O)[C@H](CC(C)C)OC(=O)[C@H](C)CNC2=O)cc1	> 0.0001 µM
Cc1c(C)c2c(c(N)c1C#N)C(=O)N(OS(=O)(=O)c1ccccc1)C2=O	37.7 µM
Cc1ccccc1C(=O)C#Cc1cn(C2CC(O)C(CO)O2)c(=O)[nH]c1=O (stereo not given)	> 100 µM
NCCCC(=O)Nc1ccncc1	> 100 µM
COc1cc(Cl)cc(-c2nn(C(=O)NCCN3CCN(C)CC3)cc2-c2ccncc2)c1	> 100 µM

====

Let's look at some compounds and their measured TGI.
system: SNB-75 CNS; assay: NCI tumour cell line growth inhibition, 48 h

compound	cmp	TGI (µM)
COc1ccc(/C=C2\CN(C(=O)C(Cl)Cl)C/C(=C\c3ccc(OC)c(OC)c3)C2=O)cc1OC	>	100
FC(F)(F)c1cccc(COCCN2CCN(Cc3cccc(C(F)(F)F)c3)CC2)c1	=	26.3
COc1ccc(C(=O)C(c2ccc(OC)cc2)C2(O)C(=O)Nc3c(C)cc(Cl)cc32)cc1 (stereo not given)	>	100
O=c1c2ncn(C3CCCCO3)c2n(-c2ccccc2)c(=S)n1-c1ccccc1 (stereo not given)	=	20.7
C/C=C1\CN2CCC34c5ccccc5N(C)C35OCC4(C(=O)OC)C1CC25 (stereo not given)	>	100
Nc1ccc(C(=O)c2ccc(N)c(Br)c2)cc1Br	=	13.4
COC(=O)NC/C=C\c1nc(CC/C=C\C(=O)OC2CC3CC(=O)O[C@H](/C=C/CC(C)C)C[C@H]4CCC(C)C(C[C@H](OC)CC(C2)O3)O4)co1 (stereo not given in full)	>	100
c1nncn1C12C3C4C5C3C1C5C42 (stereo not given)	>	100
c1ccc2c(c1)CCN(C1=NCCO1)C2	>	10
Cc1ccc(C2(N3CCCC3)OC(C)(C)c3cccc4cccc2c34)cc1 (stereo not given)	=	26.3

====

system: HCT-15 colon; assay: NCI tumour cell line growth inhibition, 48 h

compound	system	cmp	TGI (µM)
CC1(C)OC[C@@H]([C@@]2(CO[Si](C)(C)C(C)(C)C)CC=CC(=O)O2)O1	HCT-15 colon	>	100
S=c1nc(Oc2ccc(Cl)c(Cl)c2)[nH]c(=S)[nH]1	HCT-15 colon	>	100
c1nc2cscc2c2cscc12	HCT-15 colon	>	100
Cc1ccc(C2(N3CCCC3)OC(C)(C)c3cccc4cccc2c34)cc1 (stereo not given)	HCT-15 colon	=	32.2
C=CC[C@H]1C[C@@]2(C)OC[C@H](C(C)C)N2C1=O	HCT-15 colon	>	100
O=C(NC1CC1)c1ccc(-c2nc3ccc4[nH]ncc4c3c3c2CCCC3)cc1	HCT-15 colon	=	13.9
COc1c(C)c2c(c(O)c1C/C=C(\C)CCC(=O)OCCN1CCOCC1)C(=O)OC2	HCT-15 colon	>	100
COc1ccc2c(c1)c(=O)c1c(NCCCN(C)CCCNc3ccc4c(=O)n(CCN(C)C)c(=O)n5c6ccc(OC)cc6c(=O)c3c45)ccc3c(=O)n(CCN(C)C)c(=O)n2c31	HCT-15 colon	=	0.617
O=C1OC(C2Cc3ccccc3C2=O)c2ccccc21 (stereo not given)	HCT-15 colon	>	100
O=[N+]([O-])c1ccc(-c2nc(N(CCO)CCO)c3ccccc3n2)o1	HCT-15 colon	=	1.71

====

system: SN12C renal; experiment: NCI tumour cell line growth inhibition, 48 h
Let's look at some molecules and their measured TGI.

molecule	TGI
CC1=NC2(CCCCC2)N(Cl)C(=O)C1SC#N (stereo unspecified)	36.5 µM
N#CC1=C(N)OC2=C(COc3ccc(F)cc32)C1c1ccc(Cl)cc1 (stereo unspecified)	> 100 µM
CC(C)(C)OC(=O)NC1CCCC1C(O)(C1=CCCC1)C1=CCCC1 (stereo unspecified)	> 100 µM
NC(Cc1ccccc1)=NCC(=O)O	> 100 µM
C=C1CC[C@@]2(C#N)[C@H]3[C@H](CC[C@@H]2C)[C@@H](C)C[C@@H](CC(C)(C)C#N)[C@H]13	64.8 µM
O=C1C(Cl)=C(Oc2ccc([N+](=O)[O-])cc2)C(=O)c2c(O)ccc(O)c21	> 100 µM

====

Let's look at some molecules and their measured TGI.
test system: UACC-257 melanoma; experiment: NCI tumour cell line growth inhibition, 48 h
resultType: TGI

molecule	resultType	recordedValue
CSc1nc2c(c(=O)n1C)N=C(c1ccc(Cl)cc1)CC(c1ccccc1)N2 (configuration not stated)	TGI	54.8 µM
COc1ccc(/C=C\c2cc(OC)c(OC)c(OC)c2)cc1OC(=O)C(N)CCC(=O)O (configuration not stated)	TGI	22.8 µM
NCCCN(CCCN)CCCNCc1c2ccccc2c(CNCCCN(CCCN)CCCN)c2ccccc12	TGI	27.3 µM
CC1(C)CC(=O)C2=C(C1)NC(SCC(=O)O)=C(C#N)C2c1ccc(Br)cc1 (configuration not stated)	TGI	> 100 µM
O=C1C=C(N2CCCC2)C(=O)c2c(O)ccc(O)c21	TGI	> 10 µM
C/C=C(\C)C(=O)N[C@H]1[C@@H](OC(C)=O)C[C@]2(C)C3CC[C@@]4(C)C(CC[C@@H]4C(C)N(C)C)C3CCC2[C@H]1O (some centres not stated)	TGI	5.16 µM
O=C1C(=Cc2ccco2)C(=O)C2CCCCC12 (configuration not stated)	TGI	> 100 µM
COc1ccc2nc(-c3ccccc3)cc(Nc3ccc(C(C)=O)cc3)c2c1	TGI	32.6 µM
O=C(Nc1ccccc1)c1cc(S(=O)(=O)Nc2n[nH]c(=O)[nH]2)c(SSc2cc(Cl)c(C(=O)Nc3ccccc3)cc2S(=O)(=O)Nc2n[nH]c(=O)[nH]2)cc1Cl	TGI	> 100 µM
CN(C)CCCN=C(N)N	TGI	> 100 µM
CC(=O)N1CC(C)(C)c2c1cc(C)c(O)c2C	TGI	> 100 µM
Cc1cccc(C)c1NC(=O)CCCC(=O)CC(=O)/C=C/c1ccccc1	TGI	> 100 µM
c1nncn1C12C3C4C5C3C1C5C42 (configuration not stated)	TGI	> 100 µM
CC(C)=CC(=O)Oc1ccc([N+](=O)[O-])cc1	TGI	> 100 µM
CCOC(=O)Cc1csc(/N=C2\NC(=O)/C(=C3\C(=O)N(C)c4ccccc43)S2)n1	TGI	> 100 µM
S=c1nc(Oc2ccc(Cl)c(Cl)c2)[nH]c(=S)[nH]1	TGI	> 80 µM
COc1ccc(C2c3cc4c(cc3OC(NNC(N)=O)C2C)OCO4)cc1 (configuration not stated)	TGI	> 100 µM
O=C1CSC(c2cccc(Cl)c2)N1c1c(O)c(Cl)cc(Br)c1Cl (configuration not stated)	TGI	67.4 µM
COc1ccc2c(c1)C1Oc3ccccc3CC1(O)CO2 (configuration not stated)	TGI	> 100 µM
N#CC1=C(N)N=C(N2CCCCC2)C(C#N)C12Nc1ccccc1S2 (configuration not stated)	TGI	51 µM
COc1ccc(-c2cc(C3CC3)nc(SCC(=O)O)c2C#N)cc1	TGI	> 100 µM
CCN(CC)c1ccc2c(c1)Oc1ccc(N(C(C)=O)c3ccccc3)cc1C21OC(=O)c2ccccc21 (configuration not stated)	TGI	> 100 µM
CC1(C)COCN1COC1CCCCC1	TGI	> 100 µM
Cc1ccc(C(=O)Cc2nc3ncccc3[nH]c2=O)cc1	TGI	> 100 µM
N#Cc1nc(C(F)(F)F)oc1N	TGI	> 100 µM
CC(C)=CCC/C(=C\CC/C(=C\CCc1ccoc1)C(=O)O)C(=O)O	TGI	> 100 µM
Nc1ccccc1/C=C\c1ccccc1	TGI	> 100 µM
COc1ccccc1C1=C2C(=O)N(C)C(c3ccccc3OC)=C2C(=O)N1C	TGI	> 100 µM
C=C1CC[C@@]2(C#N)[C@H]3[C@H](CC[C@@H]2C)[C@@H](C)C[C@@H](CC(C)(C)C#N)[C@H]13	TGI	56.4 µM
CCCc1ccc(S(=O)(=O)N[C@H]2CC[C@H]3[C@@H]4CCc5cc(O)ccc5[C@H]4CC[C@]23C)cc1	TGI	15.7 µM
S=c1[nH]c(=S)c2sc(=S)n(-c3ccccc3)c2[nH]1	TGI	> 100 µM
COc1ccc(/C=C2\Sc3nnc(C)n3N=C2c2cc(F)c(Cl)cc2Cl)cc1OC	TGI	32.5 µM
OCc1c2c(cc3c1CC1(C3)Cc3cc4c(c(CO)c3C1)CCC4)CCC2	TGI	23.8 µM
Cc1cccc(C)c1NC(=O)/C(Cl)=C(/Cl)C(=O)O	TGI	29.8 µM
CC1(C)NCCC[C@]2(C)[C@H]3C=CC4=C5C[C@](C)(CO)CC[C@]5(C)CC[C@@]4(C)[C@]3(C)CC[C@@H]12	TGI	17 µM
Cc1c(C#N)c2nnn(-c3ccc([N+](=O)[O-])cc3)c(=O)n2c1-c1ccccc1	TGI	47.6 µM
O=C(Nc1ccc(-n2cc(-c3ccncc3)c(-c3ccc(O)c(Cl)c3)n2)cc1)c1cc(Cl)cc(Cl)c1	TGI	> 32.5 µM
